test system: P12-Ichikawa; assay: cell viability relative to DMSO control; higher = less cytotoxic; conditions: RPMI 5 mM glucose + 10% FBS; 48 h; 0.00702 µM
Cut-off 90% on cell viability: below means Yes, at or above means No.

State whether 90% exceeds cell viability recorded for CN(C)CCOC(c1ccccc1)c1ccccc1 .
No

State whether 90% exceeds cell viability recorded for CC[C@]1(O)C[C@H]2CN(CCC3=C([NH]C4=C3C=CC=C4)[C@@](C2)(C(=O)OC)C5=CC6=C(C=C5OC)N(C=O)[C@H]7[C@](O)([C@H](OC(C)=O)[C@]8(CC)\C=C/C[N@@]9CC[C@]67[C@H]89)C(=O)OC)C1 .
No

State whether 90% exceeds cell viability recorded for CCCCCCCCCCCC(CC1OC(=O)C1CCCCCC)OC(=O)C(CC(C)C)NC=O (stereo not given) .
No

State whether 90% exceeds cell viability recorded for CNC(=O)c1cccc(-c2ccc3c(N4CCOC[C@@H]4C)nc(N4CCOC[C@@H]4C)nc3n2)c1 .
Yes
